Target: full-length human PRMT3 isoform 1 (GST-tagged) (Homo sapiens, UniProt O60678)
Construct: GST-tagged PRMT3; made in house; host or cells: E. coli BL21(DE3) Gold
Sequence (O60678 with tags, fused parts or gaps): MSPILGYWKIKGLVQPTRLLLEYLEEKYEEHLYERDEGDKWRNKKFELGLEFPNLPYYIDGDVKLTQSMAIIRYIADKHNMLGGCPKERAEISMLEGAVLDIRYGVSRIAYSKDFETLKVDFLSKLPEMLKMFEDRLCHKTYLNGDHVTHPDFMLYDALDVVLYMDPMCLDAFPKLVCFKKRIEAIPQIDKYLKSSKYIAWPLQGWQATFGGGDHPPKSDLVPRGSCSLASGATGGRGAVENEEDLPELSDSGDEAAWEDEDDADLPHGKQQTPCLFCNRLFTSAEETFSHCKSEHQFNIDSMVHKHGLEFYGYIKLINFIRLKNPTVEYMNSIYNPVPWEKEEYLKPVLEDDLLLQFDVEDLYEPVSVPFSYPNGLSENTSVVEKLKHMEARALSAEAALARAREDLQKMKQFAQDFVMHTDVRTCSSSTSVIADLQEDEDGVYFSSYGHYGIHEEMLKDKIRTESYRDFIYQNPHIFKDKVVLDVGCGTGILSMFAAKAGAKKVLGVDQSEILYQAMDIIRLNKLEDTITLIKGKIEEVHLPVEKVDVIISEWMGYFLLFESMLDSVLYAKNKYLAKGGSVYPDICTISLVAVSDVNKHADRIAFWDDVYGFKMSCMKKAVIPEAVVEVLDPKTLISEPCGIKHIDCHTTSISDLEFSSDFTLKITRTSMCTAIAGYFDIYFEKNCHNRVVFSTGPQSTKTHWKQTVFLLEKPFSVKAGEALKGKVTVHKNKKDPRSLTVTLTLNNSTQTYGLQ
Assay: PRMT3 Biochemical Assay (3H-SAM Flashplate, peptide substrate)
Details: single experiment or average of multiple experiments
measure: IC50 (µM)

Use the examples below as a reference point.
[
  {
    "smiles_record": "CNCCN(C)Cc1c[nH]nc1/C=C/c1ccc(-c2ccccc2)cc1",
    "target": "full-length human PRMT3 isoform 1 (GST-tagged) (Homo sapiens, UniProt O60678)",
    "display_unit": "µM",
    "IC50": 1.45
  },
  {
    "smiles_record": "CN(CCN)Cc1c[nH]nc1/C=C/c1ccc(F)cc1F",
    "target": "full-length human PRMT3 isoform 1 (GST-tagged) (Homo sapiens, UniProt O60678)",
    "display_unit": "µM",
    "IC50": 3.62
  },
  {
    "smiles_record": "CN(CCN)Cc1c[nH]nc1/C=C/c1cc(C(F)(F)F)cc(C(F)(F)F)c1",
    "target": "full-length human PRMT3 isoform 1 (GST-tagged) (Homo sapiens, UniProt O60678)",
    "display_unit": "µM",
    "IC50": 6.77
  },
  {
    "smiles_record": "CN(CCN)Cc1c[nH]nc1CCc1ccccc1",
    "target": "full-length human PRMT3 isoform 1 (GST-tagged) (Homo sapiens, UniProt O60678)",
    "display_unit": "µM",
    "IC50": 8.93
  },
  {
    "smiles_record": "COC/C=C/c1n[nH]cc1CN(C)CCN",
    "target": "full-length human PRMT3 isoform 1 (GST-tagged) (Homo sapiens, UniProt O60678)",
    "display_unit": "µM",
    "IC50": 7.74
  },
  {
    "smiles_record": "CNCCN(C)Cc1c[nH]nc1C#Cc1ccccc1",
    "target": "full-length human PRMT3 isoform 1 (GST-tagged) (Homo sapiens, UniProt O60678)",
    "display_unit": "µM",
    "IC50": 9.4
  },
  {
    "smiles_record": "COc1cccc(/C=C/c2n[nH]cc2CN(C)CCN)c1",
    "target": "full-length human PRMT3 isoform 1 (GST-tagged) (Homo sapiens, UniProt O60678)",
    "display_unit": "µM",
    "IC50": 2.36
  },
  {
    "smiles_record": "CNCCN(C)Cc1c[nH]nc1C#Cc1ccc(C(C)(C)C)cc1",
    "target": "full-length human PRMT3 isoform 1 (GST-tagged) (Homo sapiens, UniProt O60678)",
    "display_unit": "µM",
    "IC50": 3
  }
]

A: Cc1ccc(/C=C/c2n[nH]cc2CN(C)CCN)cc1
B: CN(CCN)Cc1c[nH]nc1/C=C/c1cccc(F)c1
C: CN(CCN)Cc1c[nH]nc1CCc1ccc(F)cc1
D: CNCCN(C)Cc1c[nH]nc1/C=C/c1ccc(C(F)(F)F)cc1
E: COc1cc(/C=C/c2n[nH]cc2CN(C)CCN)cc(OC)c1
Exercise: Ordering criterion: IC50; begin with the maximum. Use the labels to give the ranking in the order requested.
Solution: C, A, D, B, E
(C: 9.65 µM, A: 5.81 µM, D: 3.94 µM, B: 2.34 µM, E: 1.58 µM)
